Tested on: carrageenan-induced pleural fluid
Assay Overview: Anti-pleurisy screen;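 note: Pleural fluid volume as percent of control rats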
Type: in vivo, Sprague Dawley male rats
Recorded Conditions: rats, 8 mg/kg I.P., 1 h before and 3 h after carrageenan; Table 2
Measured Rat Pleurisy accompanies every entry in the list below.
Property Measured: Rat Pleurisy

smiles_string=C[NH2+][BH2-]C(=O)O property_measured="Rat Pleurisy" observed_value="61 % of control"
smiles_string=COC(=O)[BH2-][N+](C)(C)C property_measured="Rat Pleurisy" observed_value="45 % of control"
smiles_string=O=C(O)[BH2-][P+](c1ccccc1)(c1ccccc1)c1ccccc1 property_measured="Rat Pleurisy" observed_value="28 % of control"
smiles_string=COC(=O)[BH2-][NH+](C)C property_measured="Rat Pleurisy" observed_value="86 % of control"
smiles_string=CCOC(=O)[BH2-][NH+](C)C property_measured="Rat Pleurisy" observed_value="61 % of control"
smiles_string=C[N+](C)(C)[BH2-]C#N property_measured="Rat Pleurisy" observed_value="65 % of control"

###

Test system: trypsin
Assay Overview: Trypsin proteolytic activity, mouse macrophages
Format: cell-based, mouse (J774 macrophages)
Recorded Conditions: Table 5; read-out: IC50 Trypsin, Mouse Macrophage
pIC50: −log10 of the molar value.
Property Measured: pIC50

molecule=C[NH2+][BH2-]C(=O)O property_measured=pIC50 observed_value=5.63
molecule=COC(=O)[BH2-][N+](C)(C)C property_measured=pIC50 observed_value=5.49
molecule="COC(=O)[BH2-][NH+]1CCC(c2ccccc2)CC1 (stereo not drawn)" property_measured=pIC50 observed_value=5.55
molecule=CC[N+]#C[BH2-][N+](C)(C)C.F[B-](F)(F)F property_measured=pIC50 observed_value=5.74
molecule=C[N+](C)(C)[BH2-]C#N property_measured=pIC50 observed_value=5.85
molecule=CCCCCCCCCCCCCCCCCC[N+](C)(C)[BH2-]C(=O)O property_measured=pIC50 observed_value=5.68
molecule=C[N+](C)(C)[BH2-]C(=O)NO.[H+].c1ccc([B-](c2ccccc2)(c2ccccc2)c2ccccc2)cc1 property_measured=pIC50 observed_value=5.69
molecule=C[N+](C)([BH2-]C(=O)O)CC[N+](C)(C)[BH2-]C(=O)O property_measured=pIC50 observed_value=5.63
molecule=C[NH2+][BH2-]C(=O)NO.[H+].c1ccc([B-](c2ccccc2)(c2ccccc2)c2ccccc2)cc1 property_measured=pIC50 observed_value=5.60

###

Test system: trypsin
Assay Overview: Trypsin proteolytic activity, mouse macrophages
Assay type: cell-based, mouse (J774 macrophages)
Recorded Conditions: Table 5; read-out: IC50 Trypsin, Mouse Macrophage
Response field label: string, one of fulfilled (IC50 strictly below 2 µM) or not fulfilled.

smiles_string=CCCC[N+](CCCC)(CCCC)CCCC.CCNC(=O)[BH2-][P+]([O-])(OCC)OCC qualitative_label="not fulfilled"
smiles_string=C[NH+](C)[BH2-]C(=O)O qualitative_label="not fulfilled"
smiles_string=C[NH+](C)[BH2-]C#N qualitative_label="not fulfilled"
smiles_string=O=C(O)[BH2-][P+](c1ccccc1)(c1ccccc1)c1ccccc1 qualitative_label=fulfilled
smiles_string=[BH3-][NH+]1CCOCC1 qualitative_label="not fulfilled"

###

Study System: prostaglandin cyclooxygenase
Assay Overview: Prostaglandin cyclooxygenase activity, macrophages
Format: cell-based, mouse (J774 macrophages)
Recorded Conditions: Table 7
Labels assigned by IC50 range: bottom (below 2000 nM), middle (2000 nM to below 4000 nM), top (4000 nM or more)

compound="O=C(O)[BH2-][P+](c1ccccc1)(c1ccccc1)c1ccccc1 [Compound 12]" qualitative_label=middle
compound="CCCCCCCCCCCCCCCCCC[N+](C)(C)[BH2-]C#N [Compound 36]" qualitative_label=middle
compound="CCCCCCCCCCCCCCCCCC[N+](C)(C)[BH2-]C(=O)O [Compound 9]" qualitative_label=middle
compound="COC(=O)[BH2-][N+](C)(C)C [Compound 16]" qualitative_label=middle
compound="C[N+](C)([BH2-]C(=O)O)CC[N+](C)(C)[BH2-]C(=O)O [Compound 7]" qualitative_label=bottom
compound="[BH3-][NH2+]C(C)(C)C [Compound 1]" qualitative_label=top
compound="CC[N+]#C[BH2-][N+](C)(C)C.F[B-](F)(F)F [Compound 74]" qualitative_label=bottom
compound="C[NH2+][BH2-]C(=O)O [Compound 2]" qualitative_label=middle
compound="C[N+](C)(C)[BH2-]C(=O)NO.Cl [Compound 77]" qualitative_label=top
compound="C[NH+](C)[BH2-]C(=O)O [Compound 3]" qualitative_label=middle

Reference for the values: paper PMC2364952
